- Assay Info: in vitro
- Measurement Parameters: dog, MDCK cells
- Description: Selectivity index, ratio of CTD50 for MDCK cells to ED50 for Influenza A virus (A/California/07/09(H1N1)) pdm09
Where a name gives a salt, the structure may show the parent alone.
Property Label: selectivity ratio

CC1(C)[C@@H]2CC[C@@]1(C)[C@H](NCCCCCCCCCCCCN[C@@H]1C[C@H]3CC[C@]1(C)C3(C)C)C2	3
CC1(C)[C@@H]2CC[C@@]1(C)[C@H](Nc1ccc(Cc3ccc(N[C@@H]4C[C@H]5CC[C@]4(C)C5(C)C)cc3)cc1)C2	4
CC1(C)[C@@H]2CC[C@@]1(C)[C@H](Nc1ccc(Oc3ccc(N[C@@H]4C[C@H]5CC[C@]4(C)C5(C)C)cc3)cc1)C2	3

Enquiry: Look up selectivity ratio for this molecule: CC1(C)C2CC[C@@]1(C)C(=O)C2
Return: 2

Enquiry: Look up selectivity ratio for this molecule: CC1(C)[C@@H]2CC[C@@]1(C)/C(=N/CCCCCCCC/N=C1\C[C@H]3CC[C@]1(C)C3(C)C)C2
Return: 16

Enquiry: Look up selectivity ratio for this molecule: CC1(C)[C@@H]2CC[C@@]1(C)[C@H](NCCCCCCCN[C@@H]1C[C@H]3CC[C@]1(C)C3(C)C)C2
Return: 3

Enquiry: Look up selectivity ratio for this molecule: CC1(C)[C@@H]2CC[C@@]1(C)/C(=N/CCCCCCC/N=C1\C[C@H]3CC[C@]1(C)C3(C)C)C2
Return: 55

Enquiry: Look up selectivity ratio for this molecule: CN(CCCCCCN(C)[C@@H]1C[C@H]2CC[C@]1(C)C2(C)C)[C@@H]1C[C@H]2CC[C@]1(C)C2(C)C
Return: 1

Enquiry: Look up selectivity ratio for this molecule: NC12CC3CC(CC(C3)C1)C2
Return: 4

Enquiry: Look up selectivity ratio for this molecule: CC1(C)[C@@H]2CC[C@@]1(C)/C(=N/c1ccc(Oc3ccc(/N=C4\C[C@H]5CC[C@]4(C)C5(C)C)cc3)cc1)C2
Return: 3

Enquiry: Look up selectivity ratio for this molecule: CC1(C)[C@@H]2CC[C@@]1(C)/C(=N/CCCCCCCCCCCC/N=C1\C[C@H]3CC[C@]1(C)C3(C)C)C2
Return: 49

Enquiry: Look up selectivity ratio for this molecule: CC(N)C12CC3CC(CC(C3)C1)C2 (configuration not stated) [RIMANTADINE HYDROCHLORIDE]
Return: 5

---

Known CC50 at 48 h of a selection of compounds
- Assay Info: Cytotoxicity against MDCK cells assessed as cell viability after 48 hrs by MTT assay
- Format: cell-based, Canis lupus familiaris
- Measurement Parameters: dog, read-out: CTD50
Use µM as the unit, but write only the number.

Here's what some known entries look like.
CC(N)C1CC2CCC1C2 (stereo not drawn)	1270
CC1(C)[C@@H]2CC[C@@]1(C)/C(=N/CCCCCCCCCCCC/N=C1\C[C@H]3CC[C@]1(C)C3(C)C)C2	2220
CC1(C)[C@@H]2CC[C@@]1(C)/C(=N/CCC/N=C1\C[C@H]3CC[C@]1(C)C3(C)C)C2	284

Enquiry: Look up CC50 at 48 h for this compound: CN(CCCCCCCN(C)[C@@H]1C[C@H]2CC[C@]1(C)C2(C)C)[C@@H]1C[C@H]2CC[C@]1(C)C2(C)C
Return: 698

Enquiry: Look up CC50 at 48 h for this compound: CC1(C)[C@@H]2CC[C@@]1(C)[C@H](NCCCCCCN[C@@H]1C[C@H]3CC[C@]1(C)C3(C)C)C2
Return: 5.4

Enquiry: Look up CC50 at 48 h for this compound: CC1(C)[C@@H]2CC[C@@]1(C)/C(=N/CCCCCCCC/N=C1\C[C@H]3CC[C@]1(C)C3(C)C)C2
Return: 390

Enquiry: Look up CC50 at 48 h for this compound: CC1(C)[C@@H]2CC[C@@]1(C)[C@H](NCCCCCCCCCCCCN[C@@H]1C[C@H]3CC[C@]1(C)C3(C)C)C2
Return: 14.4

Enquiry: Look up CC50 at 48 h for this compound: CC1(C)[C@@H]2CC[C@@]1(C)[C@H](NCCCCCCCN[C@@H]1C[C@H]3CC[C@]1(C)C3(C)C)C2
Return: 10.4

---

- Assay Info: in vitro
- Measurement Parameters: dog, MDCK cells
Property Label: selectivity ratio
Please give the numeric answer without any surrounding text.

Here's what some known entries look like.
CN(CCCCCCCN(C)[C@@H]1C[C@H]2CC[C@]1(C)C2(C)C)[C@@H]1C[C@H]2CC[C@]1(C)C2(C)C	17
CC1(C)[C@@H]2CC[C@@]1(C)/C(=N/c1ccc(Cc3ccc(/N=C4\C[C@H]5CC[C@]4(C)C5(C)C)cc3)cc1)C2	3
CC1(C)[C@@H]2CC[C@@]1(C)/C(=N/CCCCCC/N=C1\C[C@H]3CC[C@]1(C)C3(C)C)C2	89
CC1(C)[C@@H]2CC[C@@]1(C)[C@H](NCCCCCCN[C@@H]1C[C@H]3CC[C@]1(C)C3(C)C)C2	7
CC1(C)[C@@H]2CC[C@@]1(C)/C(=N/c1ccc(Oc3ccc(N)cc3)cc1)C2	8
CC1(C)[C@@H]2CC[C@@]1(C)/C(=N/CCC/N=C1\C[C@H]3CC[C@]1(C)C3(C)C)C2	30

Enquiry: Look up selectivity ratio for this compound: CC1(C)[C@@H]2CC[C@@]1(C)/C(=N/c1ccc(Cc3ccc(N)cc3)cc1)C2
Return: 2

---

- Assay Info: Cytotoxicity against MDCK cells assessed as cell viability after 48 hrs by MTT assay
- Assay type: cell-based, Canis lupus familiaris
- Measurement Parameters: dog, read-out: CTD50
Field 'label' (enum: 1 (yes) / 0 (no)). Set to 1 (yes) when CC50 at 48 h is strictly under 100 µM; else 0 (no).

A selection of reference data follows.
CC1(C)[C@@H]2CC[C@@]1(C)/C(=N/CCCCCC/N=C1\C[C@H]3CC[C@]1(C)C3(C)C)C2	0 (no)
CC1(C)[C@@H]2CC[C@@]1(C)/C(=N/c1ccc(Cc3ccc(N)cc3)cc1)C2	1 (yes)
CC1(C)[C@@H]2CC[C@@]1(C)[C@H](Nc1ccc(Oc3ccc(N[C@@H]4C[C@H]5CC[C@]4(C)C5(C)C)cc3)cc1)C2	0 (no)
CC1(C)[C@@H]2CC[C@@]1(C)/C(=N/c1ccc(Oc3ccc(N)cc3)cc1)C2	1 (yes)
CC1(C)[C@@H]2CC[C@@]1(C)/C(=N/CCCCCCC/N=C1\C[C@H]3CC[C@]1(C)C3(C)C)C2	0 (no)

Enquiry: Is CC50 at 48 h strictly under 100 µM for the entry CC1(C)[C@@H]2CC[C@@]1(C)/C(=N/c1ccc(Oc3ccc(/N=C4\C[C@H]5CC[C@]4(C)C5(C)C)cc3)cc1)C2 ?
Return: 0 (no)

Enquiry: Is CC50 at 48 h strictly under 100 µM for the entry CC1(C)[C@@H]2CC[C@@]1(C)[C@H](Nc1ccc(Cc3ccc(N[C@@H]4C[C@H]5CC[C@]4(C)C5(C)C)cc3)cc1)C2 ?
Return: 0 (no)

Enquiry: Is CC50 at 48 h strictly under 100 µM for the entry CN(CCCCCCN(C)[C@@H]1C[C@H]2CC[C@]1(C)C2(C)C)[C@@H]1C[C@H]2CC[C@]1(C)C2(C)C ?
Return: 0 (no)

Enquiry: Is CC50 at 48 h strictly under 100 µM for the entry CC1(C)[C@@H]2CC[C@@]1(C)/C(=N/c1ccc(Cc3ccc(/N=C4\C[C@H]5CC[C@]4(C)C5(C)C)cc3)cc1)C2 ?
Return: 0 (no)
